Taken from ChEMBL document CHEMBL1140506.

# Tested target: Protein deacetylase HDAC6 (Mus musculus, UniProt Q9Z2V5)
# Sequence (Q9Z2V5 whole entry): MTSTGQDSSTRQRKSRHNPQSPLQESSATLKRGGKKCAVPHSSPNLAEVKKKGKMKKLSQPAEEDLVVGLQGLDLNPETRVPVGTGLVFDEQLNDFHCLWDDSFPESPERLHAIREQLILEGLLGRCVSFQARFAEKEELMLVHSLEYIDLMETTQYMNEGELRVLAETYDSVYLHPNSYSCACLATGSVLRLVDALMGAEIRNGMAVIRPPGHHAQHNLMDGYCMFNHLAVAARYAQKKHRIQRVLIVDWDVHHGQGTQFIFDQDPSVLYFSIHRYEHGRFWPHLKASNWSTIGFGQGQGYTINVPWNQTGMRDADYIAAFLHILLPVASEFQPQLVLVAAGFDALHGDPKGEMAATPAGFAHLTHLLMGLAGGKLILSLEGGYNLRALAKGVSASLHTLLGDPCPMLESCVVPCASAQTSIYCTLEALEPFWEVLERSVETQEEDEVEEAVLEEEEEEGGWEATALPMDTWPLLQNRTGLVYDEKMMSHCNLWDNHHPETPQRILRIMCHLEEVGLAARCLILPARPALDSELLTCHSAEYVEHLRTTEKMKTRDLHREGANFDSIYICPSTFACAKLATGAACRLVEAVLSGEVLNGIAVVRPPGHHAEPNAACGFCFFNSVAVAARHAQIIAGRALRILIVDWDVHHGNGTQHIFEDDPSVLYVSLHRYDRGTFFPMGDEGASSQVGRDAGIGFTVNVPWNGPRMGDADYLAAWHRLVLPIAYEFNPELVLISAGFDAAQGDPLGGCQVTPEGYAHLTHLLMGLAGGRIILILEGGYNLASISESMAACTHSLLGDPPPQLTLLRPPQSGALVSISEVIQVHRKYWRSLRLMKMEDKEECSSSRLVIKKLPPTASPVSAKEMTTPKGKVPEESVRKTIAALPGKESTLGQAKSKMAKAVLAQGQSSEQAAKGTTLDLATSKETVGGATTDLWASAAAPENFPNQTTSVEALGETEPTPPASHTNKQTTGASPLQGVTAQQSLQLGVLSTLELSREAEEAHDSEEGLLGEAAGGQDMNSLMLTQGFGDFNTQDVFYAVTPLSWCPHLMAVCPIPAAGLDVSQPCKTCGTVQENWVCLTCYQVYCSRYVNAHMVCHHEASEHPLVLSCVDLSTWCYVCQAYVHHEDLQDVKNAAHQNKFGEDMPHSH
# Assay name: Inhibition of mouse HDAC6 expressed in 293T cells
Please note: IC50 exactly at 40 nM is Criterion not met. Only values below 40 nM get Criterion met.

## Task Determine if `C[C@@H]1NC(=O)[C@@]2(CCc3ccccc32)NC(=O)[C@H](CCCCCSSc2ccccn2)NC(=O)[C@H]2CCCN2C1=O` shows IC50 strictly lower than 40 nM.
## Result Criterion met

## Task Input `C[C@@H]1NC(=O)C(C)(C)NC(=O)[C@H](CCCCCSSc2ccccn2)NC(=O)[C@H]2CCCN2C1=O` ; condition: IC50 strictly below 40 nM. Does it hold?
## Result Criterion not met

## Task Please indicate whether the reported IC50 of `CC1(C)NC(=O)[C@H](CCCCCSSc2ccccn2)NC(=O)[C@H]2CCCN2C(=O)[C@H](c2ccccc2)NC1=O` is strictly below 40 nM.
## Result Criterion not met

## Task Decide: IC50 of `C[C@@H]1NC(=O)[C@](C)(Cc2ccccc2)NC(=O)[C@H](CCCCCSSc2ccccn2)NC(=O)[C@H]2CCCN2C1=O` strictly below 40 nM?
## Result Criterion not met

## Task Does `CC1(C)NC(=O)[C@H](CCCCCSSc2ccccn2)NC(=O)[C@H]2CCCN2C(=O)[C@H](CCc2ccccc2)NC1=O` have IC50 strictly under 40 nM?
## Result Criterion met

## Task Hi there! Is IC50 for `CC1(C)NC(=O)[C@H](CCCCCSSc2ccccn2)NC(=O)[C@H]2CCCN2C(=O)[C@H](COCc2ccccc2)NC1=O` below 40 nM, do you know?
## Result Criterion met

## Task Hello, is IC50 of the following molecule strictly smaller than 40 nM? `C[C@@H]1NC(=O)[C@@](C)(Cc2ccccc2)NC(=O)[C@H](CCCCCSSc2ccccn2)NC(=O)[C@H]2CCCN2C1=O`
## Result Criterion not met

## Task Consider the molecule `C[C@@H]1NC(=O)C2(Cc3ccccc3C2)NC(=O)[C@H](CCCCCSSc2ccccn2)NC(=O)[C@H]2CCCN2C1=O` . Is its IC50 strictly less than 40 nM?
## Result Criterion met

## Task Hi there! Is IC50 for `C[C@@H]1NC(=O)[C@]2(CCc3ccccc32)NC(=O)[C@H](CCCCCSSc2ccccn2)NC(=O)[C@H]2CCCN2C1=O` below 40 nM, do you know?
## Result Criterion met

## Task Dear colleague, could you confirm whether IC50 of `CC1(C)NC(=O)[C@H](CCCCCSSc2ccccn2)NC(=O)[C@H]2CCCN2C(=O)[C@H](CCCc2ccccc2)NC1=O` falls below 40 nM? Thanks.
## Result Criterion not met

## Task Item `C[C@@H]1NC(=O)C(C)(C)NC(=O)[C@H](CCCCCSSc2ccccn2)NC(=O)[C@H]2Cc3ccccc3CN2C1=O` : IC50 beneath 40 nM, strictly?
## Result Criterion met

## Task For `CC1(C)NC(=O)[C@H](CCCCCSSc2ccccn2)NC(=O)[C@H]2CCCN2C(=O)[C@H](CO)NC1=O` , is the recorded IC50 below the cut-off of 40 nM?
## Result Criterion met
